Exercise: state measured viability, T/C for each of the compounds provided.
Tested on: 958667-338-R-J2-PDC tumor spheroids viability
experimentalDetails: Anticancer human tumor 958667-338-R-J2-PDC patient-derived colon adenocarcinoma cell line growth inhibition [PI3K]
conditionDetails: second compound 1 µM; first compound 10 µM; stronger effect = lower value; spheroids with HUVEC and MSC
One number for each entry, in %.

// below: answered compounds
compound | viability, T/C / %
C[C@@H](NC(=O)c1ncnc(N)c1Cl)c1ncc(C(=O)Nc2cc(C(F)(F)F)c(Cl)cn2)s1 + CC(Nc1ccc2c(c1)OCCn1cc(N3C(=O)OCC3C(F)F)nc1-2)C(N)=O | 58.9
Cn1nccc1Nc1nccc(-c2ccn(C(CO)c3ccc(Cl)c(F)c3)c(=O)c2)n1 (stereo unspecified) + COc1c(OCCCN2CCOCC2)ccc2c3n(c(=NC(=O)c4cnc(N)nc4)nc12)CCN3 | 1.67
C#Cc1c(F)ccc2cc(O)cc(-c3ncc4c(N5CC6CCC(C5)N6)nc(OCC56CCCN5CC(F)C6)nc4c3F)c12 (stereo unspecified) + CC(Nc1ncnc2nc[nH]c12)c1cc2cccc(Cl)c2c(=O)n1-c1ccccc1 | 65.1
Cn1nccc1Nc1nccc(-c2ccn(C(CO)c3ccc(Cl)c(F)c3)c(=O)c2)n1 (stereo unspecified) + CC(Nc1ncnc2nc[nH]c12)c1cc2cccc(Cl)c2c(=O)n1-c1ccccc1 | 50.7

For every listed record, write down its viability, T/C.
1. C[C@@H](NC(=O)c1ncnc(N)c1Cl)c1ncc(C(=O)Nc2cc(C(F)(F)F)c(Cl)cn2)s1 + COc1c(OCCCN2CCOCC2)ccc2c3n(c(=NC(=O)c4cnc(N)nc4)nc12)CCN3
2. CC1(C)CCC(CN2CCN(c3ccc(C(=O)NS(=O)(=O)c4ccc(NCC5CCOCC5)c([N+](=O)[O-])c4)c(Oc4cnc5[nH]ccc5c4)c3)CC2)=C(c2ccc(Cl)cc2)C1 + CC(Nc1ccc2c(c1)OCCn1cc(N3C(=O)OCC3C(F)F)nc1-2)C(N)=O
3. CC(Cn1ccc(-c2ccc(C#N)c(Cl)c2)n1)NC(=O)c1cc(C(C)O)[nH]n1 (stereo unspecified) + CC(Nc1ccc2c(c1)OCCn1cc(N3C(=O)OCC3C(F)F)nc1-2)C(N)=O

5.92
35.5
49.8

For every listed record, write down its viability, T/C.
1. Cn1ncc(Cl)c1-c1cc(C(=O)NC(CN)Cc2cccc(F)c2)sc1Cl (stereo unspecified) + CC(Nc1ncnc2nc[nH]c12)c1cc2cccc(Cl)c2c(=O)n1-c1ccccc1
2. C=CC(=O)N1CCN(c2nc(=O)n(-c3c(C)ccnc3C(C)C)c3nc(-c4c(O)cccc4F)c(F)cc23)C(C)C1 (stereo unspecified) + CC(Nc1ncnc2nc[nH]c12)c1cc2cccc(Cl)c2c(=O)n1-c1ccccc1

[39.4, 120]

For every listed record, write down its viability, T/C.
1. Cn1nccc1Nc1nccc(-c2ccn(C(CO)c3ccc(Cl)c(F)c3)c(=O)c2)n1 (stereo unspecified) + CC(Nc1ccc2c(c1)OCCn1cc(N3C(=O)OCC3C(F)F)nc1-2)C(N)=O
2. CC(C)NCC(C(=O)N1CCN(c2ncnc3c2C(C)CC3O)CC1)c1ccc(Cl)cc1 (stereo unspecified) + COc1c(OCCCN2CCOCC2)ccc2c3n(c(=NC(=O)c4cnc(N)nc4)nc12)CCN3
3. CC(Cn1ccc(-c2ccc(C#N)c(Cl)c2)n1)NC(=O)c1cc(C(C)O)[nH]n1 (stereo unspecified) + Cc1nc(NC(=O)N2CCCC2C(N)=O)sc1-c1ccnc(C(C)(C)C(F)(F)F)c1
4. Cn1ncc(Cl)c1-c1cc(C(=O)NC(CN)Cc2cccc(F)c2)sc1Cl (stereo unspecified) + Cc1nc(NC(=O)N2CCCC2C(N)=O)sc1-c1ccnc(C(C)(C)C(F)(F)F)c1
5. Cn1ncc(Cl)c1-c1cc(C(=O)NC(CN)Cc2cccc(F)c2)sc1Cl (stereo unspecified) + COc1c(OCCCN2CCOCC2)ccc2c3n(c(=NC(=O)c4cnc(N)nc4)nc12)CCN3
6. CNC(=O)c1ccc(N2C(=S)N(c3ccc(C#N)c(C(F)(F)F)c3)C(=O)C2(C)C)cc1F + CC(Nc1ccc2c(c1)OCCn1cc(N3C(=O)OCC3C(F)F)nc1-2)C(N)=O

1: 6.4; 2: 14.8; 3: 80; 4: 24.9; 5: 12.5; 6: 50.6

###

System: 958667-338-R-J2-PDC tumor spheroids viability
experimentalDetails: Anticancer human tumor 958667-338-R-J2-PDC cell line growth inhibition [PI3K];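 also: spheroids exposed to compounds for seven days before readout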
conditionDetails: second compound 0.316 µM; first compound 10 µM; stronger effect = lower value; spheroids with HUVEC and MSC
Exercise: state measured viability, T/C for each of the molecules provided.

// below: answered molecules
molecule | targetOrSystem | reportedEndpoint | endpointResult
C=CC(=O)N1CCN(c2nc(=O)n(-c3c(C)ccnc3C(C)C)c3nc(-c4c(O)cccc4F)c(F)cc23)C(C)C1 (stereo not given) + Cc1nc(NC(=O)N2CCCC2C(N)=O)sc1-c1ccnc(C(C)(C)C(F)(F)F)c1 | 958667-338-R-J2-PDC tumor spheroids viability | viability, T/C | 84.7%
CC(Cn1ccc(-c2ccc(C#N)c(Cl)c2)n1)NC(=O)c1cc(C(C)O)[nH]n1 (stereo not given) + Cc1nc(NC(=O)N2CCCC2C(N)=O)sc1-c1ccnc(C(C)(C)C(F)(F)F)c1 | 958667-338-R-J2-PDC tumor spheroids viability | viability, T/C | 92.3%
CNC(=O)c1ccc(N2C(=S)N(c3ccc(C#N)c(C(F)(F)F)c3)C(=O)C2(C)C)cc1F + CC(Nc1ncnc2nc[nH]c12)c1cc2cccc(Cl)c2c(=O)n1-c1ccccc1 | 958667-338-R-J2-PDC tumor spheroids viability | viability, T/C | 107%
CC(Cn1ccc(-c2ccc(C#N)c(Cl)c2)n1)NC(=O)c1cc(C(C)O)[nH]n1 (stereo not given) + COc1c(OCCCN2CCOCC2)ccc2c3n(c(=NC(=O)c4cnc(N)nc4)nc12)CCN3 | 958667-338-R-J2-PDC tumor spheroids viability | viability, T/C | 49.2%

Pending molecule:
Returns the measured viability, T/C for the input molecule. Input: CNC(=O)c1ccc(N2C(=S)N(c3ccc(C#N)c(C(F)(F)F)c3)C(=O)C2(C)C)cc1F + COc1c(OCCCN2CCOCC2)ccc2c3n(c(=NC(=O)c4cnc(N)nc4)nc12)CCN3 22.7%

###

Tested on: 958667-338-R-J2-PDC tumor spheroids viability
experimentalDetails: Anticancer human tumor 958667-338-R-J2-PDC cell line growth inhibition [PI3K];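 also: spheroids exposed to compounds for seven days before readout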
conditionDetails: curve of first compound; second compound 0.1 µM; spheroids with HUVEC and MSC
reportedEndpoint: IC50

compound | IC50
CC1(C)CCC(Nc2ncc(C(F)(F)F)c(-c3c[nH]c4c(P(C)(C)=O)c(C#N)ccc34)n2)CN1 (stereo not drawn) + COc1c(OCCCN2CCOCC2)ccc2c3n(c(=NC(=O)c4cnc(N)nc4)nc12)CCN3 | 1.4 µM

For every listed record, write down its IC50.
1. CC(Cn1ccc(-c2ccc(C#N)c(Cl)c2)n1)NC(=O)c1cc(C(C)O)[nH]n1 (stereo not drawn) + CC(Nc1ccc2c(c1)OCCn1cc(N3C(=O)OCC3C(F)F)nc1-2)C(N)=O
2. C=CC(=O)N1CCN(c2nc(=O)n(-c3c(C)ccnc3C(C)C)c3nc(-c4c(O)cccc4F)c(F)cc23)C(C)C1 (stereo not drawn) + CC(Nc1ncnc2nc[nH]c12)c1cc2cccc(Cl)c2c(=O)n1-c1ccccc1

["> 10 µM", "> 10 µM"]

###

Test system: 958667-338-R-J2-PDC tumor spheroids viability
experimentalDetails: Anticancer human tumor 958667-338-R-J2-PDC cell line growth inhibition [PI3K];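 also: spheroids exposed to compounds for seven days before readout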
conditionDetails: curve of first compound; second compound 0.0316 µM; spheroids with HUVEC and MSC
reportedEndpoint: pIC50
Answers are plain numbers, as −log10 of the molar value.

Returns the measured pIC50 for the input compound. Input: CC1(C)CCC(CN2CCN(c3ccc(C(=O)NS(=O)(=O)c4ccc(NCC5CCOCC5)c([N+](=O)[O-])c4)c(Oc4cnc5[nH]ccc5c4)c3)CC2)=C(c2ccc(Cl)cc2)C1 + COc1c(OCCCN2CCOCC2)ccc2c3n(c(=NC(=O)c4cnc(N)nc4)nc12)CCN3 5.28

###

Test system: 958667-338-R-J2-PDC tumor spheroids viability
experimentalDetails: Anticancer human tumor 958667-338-R-J2-PDC cell line growth inhibition [PI3K];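 also: spheroids exposed to compounds for seven days before readout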
conditionDetails: second compound 0.316 µM; first compound 0.01 µM; stronger effect = lower value; spheroids with HUVEC and MSC
Excerpt: Combinatorial screen of targeted agents with the PI3K inhibitors inavolisib, alpelisib, duvelisib, and copanlisib in multi-cell type tumor spheroids A high-throughput screen of multi-cell type tumor spheroids was designed to identify active combinations of targeted small molecules and PI3K pathway inhibitors. […] Compounds. […] If the clinical Cmax for an agent had not been determined, the highest concentration tested was 10 microM. […]
reportedEndpoint: viability, T/C (%)
Answers are plain numbers, in %.

// below: answered compounds
compound | unitOfMeasure | endpointResult
CC(=O)c1c(C)c2cnc(Nc3ccc(N4CCNCC4)cn3)nc2n(C2CCCC2)c1=O + Cc1nc(NC(=O)N2CCCC2C(N)=O)sc1-c1ccnc(C(C)(C)C(F)(F)F)c1 | % | 91.5
CC(=O)c1c(C)c2cnc(Nc3ccc(N4CCNCC4)cn3)nc2n(C2CCCC2)c1=O + CC(Nc1ccc2c(c1)OCCn1cc(N3C(=O)OCC3C(F)F)nc1-2)C(N)=O | % | 65.9
CCN1CCN(Cc2ccc(Nc3ncc(F)c(-c4cc(F)c5nc(C)n(C(C)C)c5c4)n3)nc2)CC1 + Cc1nc(NC(=O)N2CCCC2C(N)=O)sc1-c1ccnc(C(C)(C)C(F)(F)F)c1 | % | 86

For every listed record, write down its viability, T/C.
1. Cn1ncnc1[C@H]1c2n[nH]c(=O)c3cc(F)cc(c23)N[C@@H]1c1ccc(F)cc1 + Cc1nc(NC(=O)N2CCCC2C(N)=O)sc1-c1ccnc(C(C)(C)C(F)(F)F)c1
2. CC(C)n1nc(-c2ccc3oc(N)nc3c2)c2c(N)ncnc21 + CC(Nc1ccc2c(c1)OCCn1cc(N3C(=O)OCC3C(F)F)nc1-2)C(N)=O

1: 102; 2: 65.1

Returns the measured viability, T/C for the input compound. Input: CC(=O)c1c(C)c2cnc(Nc3ccc(N4CCNCC4)cn3)nc2n(C2CCCC2)c1=O + COc1c(OCCCN2CCOCC2)ccc2c3n(c(=NC(=O)c4cnc(N)nc4)nc12)CCN3 42.9
